# credit: patent EP4722215A1

Method summary: in vivo
Stated conditions: both, beagle, dog, plasma, po, 2 mg/kg
Metric name: Cmax (ng/mL)
Quick note: give the figure in ng/mL, leave out the unit.

Reported Cmax for N#Cc1ccc(O[C@H]2CC[C@H](NC(=O)c3ccc(N4CCC(CN5CCN(c6cc7c(cc6F)C(=O)N(C6CCC(=O)NC6=O)C7=O)CC5)CC4)nn3)CC2)cc1Cl (stereo partly shown) [ARV-110] : what is it?
13

* * *

Method summary: Long-term/accelerated stability study (sealed in aluminum foil bags)
Assay type: physicochemical
Stated conditions: 40 °C/75% RH, 3 months
Counter-ions that a name gives are not always drawn.
Purity (%) reference
Quick note: give the figure in %, leave out the unit.

Some solved entries appear below for comparison.
Molecule: C[C@H]1CC2(CCN(c3ccc(C(=O)N4CCC(CN5CCN(c6cccc(N[C@H]7CCC(=O)NC7=O)c6)CC5)CC4)cc3F)CC2)CN1c1ccc(C#N)c(Cl)c1 [Crystal form A of mandelate]
Reading: 99.3
//
Molecule: C[C@H]1CC2(CCN(c3ccc(C(=O)N4CCC(CN5CCN(c6cccc(N[C@H]7CCC(=O)NC7=O)c6)CC5)CC4)cc3F)CC2)CN1c1ccc(C#N)c(Cl)c1 [Amorphous form of maleate]
Reading: 98.3
//
Molecule: C[C@H]1CC2(CCN(c3ccc(C(=O)N4CCC(CN5CCN(c6cccc(N[C@H]7CCC(=O)NC7=O)c6)CC5)CC4)cc3F)CC2)CN1c1ccc(C#N)c(Cl)c1 [Crystal form B of succinate]
Reading: 98.5

Okay, next one:
Reported Purity (%) for C[C@H]1CC2(CCN(c3ccc(C(=O)N4CCC(CN5CCN(c6cccc(N[C@H]7CCC(=O)NC7=O)c6)CC5)CC4)cc3F)CC2)CN1c1ccc(C#N)c(Cl)c1 [Amorphous form] : what is it?
98.4

* * *

Purity (%) reference
Method summary: Long-term/accelerated stability study (sealed in aluminum foil bags)
Assay type: physicochemical
Stated conditions: 25 °C/60% RH, Initial
Structures can show the parent of a compound that is named as a salt.
Quick note: give the figure in %, leave out the unit.

Some solved entries appear below for comparison.
Molecule: C[C@H]1CC2(CCN(c3ccc(C(=O)N4CCC(CN5CCN(c6cccc(N[C@H]7CCC(=O)NC7=O)c6)CC5)CC4)cc3F)CC2)CN1c1ccc(C#N)c(Cl)c1 [Amorphous form]
Purity (%): 98.8
--
Molecule: C[C@H]1CC2(CCN(c3ccc(C(=O)N4CCC(CN5CCN(c6cccc(N[C@H]7CCC(=O)NC7=O)c6)CC5)CC4)cc3F)CC2)CN1c1ccc(C#N)c(Cl)c1 [Amorphous form of maleate]
Purity (%): 98.9
--
Molecule: C[C@H]1CC2(CCN(c3ccc(C(=O)N4CCC(CN5CCN(c6cccc(N[C@H]7CCC(=O)NC7=O)c6)CC5)CC4)cc3F)CC2)CN1c1ccc(C#N)c(Cl)c1 [Crystal form A of mandelate]
Purity (%): 99.4

Okay, next one:
Reported Purity (%) for C[C@H]1CC2(CCN(c3ccc(C(=O)N4CCC(CN5CCN(c6cccc(N[C@H]7CCC(=O)NC7=O)c6)CC5)CC4)cc3F)CC2)CN1c1ccc(C#N)c(Cl)c1 [Crystal form B of succinate] : what is it?
98.7

* * *

Purity (%) reference
Method summary: Long-term/accelerated stability study (sealed in aluminum foil bags)
Type: physicochemical
Stated conditions: 25 °C/60% RH, 3 months
Counter-ions that a name gives are not always drawn.
Quick note: give the figure in %, leave out the unit.

Compound: C[C@H]1CC2(CCN(c3ccc(C(=O)N4CCC(CN5CCN(c6cccc(N[C@H]7CCC(=O)NC7=O)c6)CC5)CC4)cc3F)CC2)CN1c1ccc(C#N)c(Cl)c1 [Crystal form A of mandelate]
Quantity unit: %
Purity (%): 99.3
--
Compound: C[C@H]1CC2(CCN(c3ccc(C(=O)N4CCC(CN5CCN(c6cccc(N[C@H]7CCC(=O)NC7=O)c6)CC5)CC4)cc3F)CC2)CN1c1ccc(C#N)c(Cl)c1 [Crystal form B of succinate]
Quantity unit: %
Purity (%): 98.7
--
Compound: C[C@H]1CC2(CCN(c3ccc(C(=O)N4CCC(CN5CCN(c6cccc(N[C@H]7CCC(=O)NC7=O)c6)CC5)CC4)cc3F)CC2)CN1c1ccc(C#N)c(Cl)c1 [Amorphous form]
Quantity unit: %
Purity (%): 98.5

Okay, next one:
Reported Purity (%) for C[C@H]1CC2(CCN(c3ccc(C(=O)N4CCC(CN5CCN(c6cccc(N[C@H]7CCC(=O)NC7=O)c6)CC5)CC4)cc3F)CC2)CN1c1ccc(C#N)c(Cl)c1 [Amorphous form of maleate] : what is it?
98.9

* * *

Method summary: Long-term/accelerated stability study (sealed in aluminum foil bags)
Format: physicochemical
Stated conditions: 40 °C/75% RH, up to 6 months
Excerpt: The results are shown below. Table 16 The results are shown below. Table 20
Counter-ions that a name gives are not always drawn.

Compound: C[C@H]1CC2(CCN(c3ccc(C(=O)N4CCC(CN5CCN(c6cccc(N[C@H]7CCC(=O)NC7=O)c6)CC5)CC4)cc3F)CC2)CN1c1ccc(C#N)c(Cl)c1 [Crystal form A of mandelate]
Crystal form: No change
//
Compound: C[C@H]1CC2(CCN(c3ccc(C(=O)N4CCC(CN5CCN(c6cccc(N[C@H]7CCC(=O)NC7=O)c6)CC5)CC4)cc3F)CC2)CN1c1ccc(C#N)c(Cl)c1 [Crystal form B of succinate]
Crystal form: No change
//
Compound: C[C@H]1CC2(CCN(c3ccc(C(=O)N4CCC(CN5CCN(c6cccc(N[C@H]7CCC(=O)NC7=O)c6)CC5)CC4)cc3F)CC2)CN1c1ccc(C#N)c(Cl)c1 [Amorphous form of maleate]
Crystal form: No change
//
Compound: C[C@H]1CC2(CCN(c3ccc(C(=O)N4CCC(CN5CCN(c6cccc(N[C@H]7CCC(=O)NC7=O)c6)CC5)CC4)cc3F)CC2)CN1c1ccc(C#N)c(Cl)c1 [Amorphous form]
Crystal form: No change

* * *

Method summary: in vivo
Stated conditions: both, beagle, dog, plasma, po, 2 mg/kg
Metric name: CL/F (mL/min/kg)
Quick note: give the figure in mL/min/kg, leave out the unit.

Reported CL/F for N#Cc1ccc(O[C@H]2CC[C@H](NC(=O)c3ccc(N4CCC(CN5CCN(c6cc7c(cc6F)C(=O)N(C6CCC(=O)NC6=O)C7=O)CC5)CC4)nn3)CC2)cc1Cl (stereo partly shown) [ARV-110] : what is it?
70.9

* * *

Method summary: Long-term/accelerated stability study (sealed in aluminum foil bags)
Assay type: physicochemical
Stated conditions: 40 °C/75% RH, 6 months
Counter-ions that a name gives are not always drawn.
Metric name: Purity (%)
Quick note: give the figure in %, leave out the unit.

Some solved entries appear below for comparison.
Compound: C[C@H]1CC2(CCN(c3ccc(C(=O)N4CCC(CN5CCN(c6cccc(N[C@H]7CCC(=O)NC7=O)c6)CC5)CC4)cc3F)CC2)CN1c1ccc(C#N)c(Cl)c1 [Amorphous form]
Quantity unit: %
Purity (%): 98.3
//
Compound: C[C@H]1CC2(CCN(c3ccc(C(=O)N4CCC(CN5CCN(c6cccc(N[C@H]7CCC(=O)NC7=O)c6)CC5)CC4)cc3F)CC2)CN1c1ccc(C#N)c(Cl)c1 [Crystal form B of succinate]
Quantity unit: %
Purity (%): 98.3
//
Compound: C[C@H]1CC2(CCN(c3ccc(C(=O)N4CCC(CN5CCN(c6cccc(N[C@H]7CCC(=O)NC7=O)c6)CC5)CC4)cc3F)CC2)CN1c1ccc(C#N)c(Cl)c1 [Amorphous form of maleate]
Quantity unit: %
Purity (%): 94.8

Okay, next one:
Reported Purity (%) for C[C@H]1CC2(CCN(c3ccc(C(=O)N4CCC(CN5CCN(c6cccc(N[C@H]7CCC(=O)NC7=O)c6)CC5)CC4)cc3F)CC2)CN1c1ccc(C#N)c(Cl)c1 [Crystal form A of mandelate] : what is it?
98.9

* * *

Method summary: in vivo
Stated conditions: both, beagle, dog, plasma, po, 2 mg/kg
Metric name: AUC(0-t) (ng·h/mL)
Quick note: give the figure in ng·h/mL, leave out the unit.

Reported AUC(0-t) for N#Cc1ccc(O[C@H]2CC[C@H](NC(=O)c3ccc(N4CCC(CN5CCN(c6cc7c(cc6F)C(=O)N(C6CCC(=O)NC6=O)C7=O)CC5)CC4)nn3)CC2)cc1Cl (stereo partly shown) [ARV-110] : what is it?
239

* * *

Purity (%) reference
Method summary: Long-term/accelerated stability study (sealed in aluminum foil bags)
Format: physicochemical
Stated conditions: 25 °C/60% RH, 6 months
Structures can show the parent of a compound that is named as a salt.
Quick note: give the figure in %, leave out the unit.

Some solved entries appear below for comparison.
Compound: C[C@H]1CC2(CCN(c3ccc(C(=O)N4CCC(CN5CCN(c6cccc(N[C@H]7CCC(=O)NC7=O)c6)CC5)CC4)cc3F)CC2)CN1c1ccc(C#N)c(Cl)c1 [Amorphous form]
Purity (%): 98.5
--
Compound: C[C@H]1CC2(CCN(c3ccc(C(=O)N4CCC(CN5CCN(c6cccc(N[C@H]7CCC(=O)NC7=O)c6)CC5)CC4)cc3F)CC2)CN1c1ccc(C#N)c(Cl)c1 [Crystal form B of succinate]
Purity (%): 98.6
--
Compound: C[C@H]1CC2(CCN(c3ccc(C(=O)N4CCC(CN5CCN(c6cccc(N[C@H]7CCC(=O)NC7=O)c6)CC5)CC4)cc3F)CC2)CN1c1ccc(C#N)c(Cl)c1 [Amorphous form of maleate]
Purity (%): 98.7

Okay, next one:
Reported Purity (%) for C[C@H]1CC2(CCN(c3ccc(C(=O)N4CCC(CN5CCN(c6cccc(N[C@H]7CCC(=O)NC7=O)c6)CC5)CC4)cc3F)CC2)CN1c1ccc(C#N)c(Cl)c1 [Crystal form A of mandelate] : what is it?
99.3
